Biological target: human B-Raf (Homo sapiens, UniProt P15056)
Construct: Flag; GST; made in house; host or cells: Sf9 insect cells (B-Raf); E. coli (MEK1-GST)
Sequence (P15056 whole entry): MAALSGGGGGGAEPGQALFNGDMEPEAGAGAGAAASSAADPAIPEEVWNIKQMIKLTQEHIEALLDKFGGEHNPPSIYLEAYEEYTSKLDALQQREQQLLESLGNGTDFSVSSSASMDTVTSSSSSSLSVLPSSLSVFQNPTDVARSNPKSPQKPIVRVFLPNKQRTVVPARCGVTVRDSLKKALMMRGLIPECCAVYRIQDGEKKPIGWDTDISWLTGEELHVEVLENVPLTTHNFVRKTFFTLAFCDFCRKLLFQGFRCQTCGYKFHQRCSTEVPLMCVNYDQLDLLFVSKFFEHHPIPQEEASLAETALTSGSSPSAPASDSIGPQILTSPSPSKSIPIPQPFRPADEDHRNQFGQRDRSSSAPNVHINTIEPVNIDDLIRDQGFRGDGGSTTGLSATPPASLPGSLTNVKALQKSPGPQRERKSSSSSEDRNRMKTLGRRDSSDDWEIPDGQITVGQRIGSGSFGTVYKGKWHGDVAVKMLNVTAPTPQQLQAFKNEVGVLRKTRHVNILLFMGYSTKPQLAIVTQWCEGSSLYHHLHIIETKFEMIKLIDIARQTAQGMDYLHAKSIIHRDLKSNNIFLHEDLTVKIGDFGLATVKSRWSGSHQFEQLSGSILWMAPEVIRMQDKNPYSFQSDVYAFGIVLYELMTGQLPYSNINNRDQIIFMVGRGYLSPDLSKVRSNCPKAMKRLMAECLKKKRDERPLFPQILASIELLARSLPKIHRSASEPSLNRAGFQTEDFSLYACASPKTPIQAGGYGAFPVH
Assay: B-Raf Kinase to MEK1 ELISA
Format: biochemical
Conditions: read-out: % Inhib./10 uM
observable: inhibition at 10 µM (%)

In [3]: df
Out[3]:
                                   compound  quantity_unit  observed_result
0  O=C(Nc1cccc(-c2ccnc3c(C(=O)NCc4ccccc4)cnn23)c1)c1cccc(C(F)(F)F)c1 [Example 57]              %               51
1  O=C(Nc1cccc(-c2ccnc3ccnn23)c1)c1cccc(C(F)(F)F)c1 [Example 153]              %               31
2  Cc1ccc(C(=O)Nc2cccc(-c3ccnc4cc(-c5ccncc5)nn34)c2)cc1 [Example 148]              %               20
3  CCOC(=O)c1cnn2c(-c3cccc(NC(=O)c4cc(C(F)(F)F)cc(Cl)c4F)c3)ccnc12 [Example 28]              %               19
4  CCOC(=O)c1cnn2c(-c3cccc(NC(=O)Nc4ccc(OC(F)(F)F)cc4)c3)ccnc12 [Example 23]              %               20
5  Cn1c(C(=O)Nc2cccc(-c3ccnc4cc(-c5ccncc5)nn34)c2)cc2ccccc21 [Example 238]              %               50
6  O=C(Nc1cccc(-c2ccnc3c(-c4cccnc4)cnn23)c1)c1cccc(C(F)(F)F)c1 [Example 155]              %              103
7  COc1ccc(-c2cnn3c(-c4cccc(NC(=O)c5cccc(C(F)(F)F)c5)c4)ccnc23)cn1 [Example 312]              %               77

P: O=C(Nc1cccc(-c2ccnc3c(C(=O)Oc4cccnc4)cnn23)c1)c1cccc(C(F)(F)F)c1 [Example 126]
Q: O=C(Nc1cccc(-c2ccnc3cc(-c4ccnc(NCCCN5CCCC5=O)c4)nn23)c1)c1cccc(C(F)(F)F)c1 [Example 261]
R: CCOC(=O)c1cnn2c(-c3cccc(NC(=O)Nc4ccc(OC)c(Cl)c4)c3)ccnc12 [Example 81]
*Q* I would appreciate it if you could sort these 3 compounds by inhibition at 10 µM, starting from the smallest number. Your answer should be the labels, listed in the requested order.
*A* P, R, Q
(P: 17%, R: 50%, Q: 94%)

A: CCOC(=O)c1cnn2c(-c3cccc(NC(=O)Nc4ccc(C(F)(F)F)cc4)c3)ccnc12 [Example 35]
B: CCOC(=O)c1cnn2c(-c3ccc(Cl)c(NC(=O)c4ccc(C)c(C(F)(F)F)c4)c3)ccnc12 [Example 106]
C: NC1CCN(c2cc3nccc(-c4cccc(NC(=O)c5cccc(C(F)(F)F)c5)c4)n3n2)C1 (centres unmarked) [Example 213]
*Q* Please list the entries, largest inhibition at 10 µM first. Your answer should be the labels, listed in the requested order.
*A* A, C, B
(A: 71%, C: 40%, B: 2%)

a: CCOC(=O)c1cnn2c(-c3cccc(NC(=O)Nc4ccc(F)c(Cl)c4)c3)ccnc12 [Example 25]
b: O=C1CCN(c2cc3nccc(-c4cccc(NC(=O)c5cccc(C(F)(F)F)c5)c4)n3n2)CC1 [Example 251]
*Q* Lab note: check whether a or b has the lower measured inhibition at 10 µM. Your answer should be the label of the entry you select.
*A* b

---

Target: human B-Raf (Homo sapiens, UniProt P15056)
Construct: Flag; GST; made in house; host or cells: Sf9 insect cells (B-Raf); E. coli (MEK1-GST)
Assay: B-Raf Kinase to MEK1 ELISA
Type: biochemical
Conditions: read-out: % Inhib./10 uM
observable: inhibition at 10 µM (%)

Here's what some known entries look like.
>>> print(df.to_string())
                                 cpd_smiles                       experimental_system  quantity_unit  observed_result
0  CCCNC(=O)c1cnn2c(-c3cccc(NC(=O)c4cccc(C(F)(F)F)c4)c3)ccnc12  human B-Raf (Homo sapiens, UniProt P15056)              %               54
1  CCOC(=O)c1cnn2c(-c3cccc(NC(=O)Nc4cc(C(F)(F)F)cc(C(F)(F)F)c4)c3)ccnc12  human B-Raf (Homo sapiens, UniProt P15056)              %               31
2  CCOC(=O)c1cnn2c(-c3cccc(NC(=O)c4cc(F)cc(C(F)(F)F)c4)c3)ccnc12  human B-Raf (Homo sapiens, UniProt P15056)              %               58
3  COC[C@H]1CCCN1c1cc2nccc(-c3cccc(NC(=O)c4cccc(C(F)(F)F)c4)c3)n2n1  human B-Raf (Homo sapiens, UniProt P15056)              %               52

P: O=C(Nc1cccc(-c2ccnc3c(Br)cnn23)c1)Nc1ccc(F)c(C(F)(F)F)c1
Q: CCOC(=O)c1cnn2c(-c3cccc(NC(=O)c4cccc(Cl)c4)c3)ccnc12
R: O=C(Nc1cccc(-c2ccnc3cc(N4CCOCC4)nn23)c1)c1ccc(Cl)c(C(F)(F)F)c1
S: CCOC(=O)c1cnn2c(-c3cccc(NC(=O)Nc4c(C)cc(C)cc4C)c3)ccnc12
*Q* I would appreciate it if you could sort these 4 compounds by inhibition at 10 µM, starting from the smallest number. Your answer should be the labels, listed in the requested order.
*A* Q, S, P, R

---

Biological target: human B-Raf (Homo sapiens, UniProt P15056)
Construct: Flag; GST; made in house; host or cells: Sf9 insect cells (B-Raf); E. coli (MEK1-GST)
Assay: B-Raf Kinase to MEK1 ELISA
Type: biochemical
Conditions: read-out: % Inhib./10 uM
observable: inhibition at 10 µM (%)

Here's what some known entries look like.
>>> print(df.to_string())
                                   molecule           observable  observed_result
0  O=C(Nc1cccc(-c2ccnc3cc(-c4ccncc4)nn23)c1)Nc1ccc(F)c(C(F)(F)F)c1 [Example 131]  inhibition at 10 µM               98
1  CCN(CC)CCNC(=O)c1cnn2c(-c3cccc(NC(=O)Nc4ccc(Cl)c(C(F)(F)F)c4)c3)ccnc12 [Example 122]  inhibition at 10 µM               83
2  Cc1ccccc1-c1cnn2c(-c3cccc(NC(=O)c4cccc(C(F)(F)F)c4)c3)ccnc12 [Example 305]  inhibition at 10 µM               54
3  CCOCOCc1ccc(-c2cc3nccc(-c4cccc(NC(=O)c5cccc(C(F)(F)F)c5)c4)n3n2)cc1 [Example 140]  inhibition at 10 µM               39
4  CCOC(=O)c1cnn2c(-c3cccc(NC(=O)Cc4c(F)ccc(F)c4F)c3)ccnc12 [Example 102]  inhibition at 10 µM                0

1: NC(=O)c1cccc(-c2cnn3c(-c4cccc(NC(=O)c5cccc(C(F)(F)F)c5)c4)ccnc23)c1 [Example 271]
2: O=C(Nc1cccc(-c2ccnc3cc(-c4ccc(Br)cc4)nn23)c1)c1cccc(C(F)(F)F)c1 [Example 287]
3: CCOC(=O)c1cnn2c(-c3cccc(NC(=O)c4cc(Cl)cc(Cl)c4)c3)ccnc12 [Example 72]
*Q* I would appreciate it if you could sort these 3 molecules by inhibition at 10 µM, starting from the smallest number. Your answer should be the labels, listed in the requested order.
*A* 3, 2, 1
(3: 4%, 2: 12%, 1: 93%)

a: COCC(=O)Nc1cccc(-c2cnn3c(-c4cccc(NC(=O)c5cccc(C(F)(F)F)c5)c4)ccnc23)c1 [Example 252]
b: CCOC(=O)c1cnn2c(-c3cccc(NC(=O)Cc4cccc(C(F)(F)F)c4)c3)ccnc12 [Example 97]
*Q* Which of the two gives a bigger number for inhibition at 10 µM: a or b ? Your answer should be the label of the entry you select.
*A* a

---

IC50 for assorted compounds
Target: human B-Raf (Homo sapiens, UniProt P15056)
Construct: Flag; GST; made in house; host or cells: Sf9 insect cells (B-Raf); E. coli (MEK1-GST)
Assay: B-Raf Kinase to MEK1 ELISA
Type: biochemical
Conditions: median; cpd concentrations from 10 μM to 30 nM in half log dilutions; read-out: Median IC50

Here's what some known entries look like.
                                   compound  observable  observed_result
0  CCOC(=O)c1cnn2c(-c3cccc(NC(=O)Nc4nc5ccc(Cl)cc5s4)c3)ccnc12        IC50          > 10 µM
1  NC1CCN(c2cc3nccc(-c4cccc(NC(=O)c5cccc(C(F)(F)F)c5)c4)n3n2)C1 (stereo not shown)        IC50          > 10 µM
2  CCOC(=O)c1cnn2c(-c3cccc(NC(=O)Cc4cccc(F)c4)c3)ccnc12        IC50          > 10 µM
3  CCOC(=O)c1cnn2c(-c3cccc(NC(=O)CC(C)(C)C)c3)ccnc12        IC50          > 10 µM
4  CCOC(=O)c1cnn2c(-c3cccc(NC(=O)Nc4nc5ccc(OC)cc5s4)c3)ccnc12        IC50          > 10 µM
5  CCOC(=O)c1cnn2c(-c3cccc(NC(=O)c4ccc(C)s4)c3)ccnc12        IC50           9.7 µM

*Q* Fill in the blank: the reported IC50 of O=C(Nc1cccc(-c2ccnc3cc(-c4ccncc4)nn23)c1)c1nccc2ccccc12 is ____.
*A* > 10 µM

*Q* Fill in the blank: the reported IC50 of O=C(Nc1cccc(-c2ccnc3cc(-c4cccc(C(F)(F)F)c4)nn23)c1)c1cccc(C(F)(F)F)c1 is ____.
*A* > 10 µM

*Q* Fill in the blank: the reported IC50 of CC(C)(C)c1cc2nccc(-c3cccc(NC(=O)c4cccc(C(F)(F)F)c4)c3)n2n1 is ____.
*A* > 10 µM

*Q* Fill in the blank: the reported IC50 of CC(O)c1ccccc1-c1cnn2c(-c3cccc(NC(=O)c4cccc(C(F)(F)F)c4)c3)ccnc12 (stereo not shown) is ____.
*A* 0.288 µM

*Q* Fill in the blank: the reported IC50 of CCOC(=O)c1cnn2c(-c3cccc(NC(=O)c4cccc(C(F)(F)F)c4)c3)c(C)cnc12 is ____.
*A* 0.36 µM

*Q* Fill in the blank: the reported IC50 of CCOC(=O)c1cnn2c(-c3cccc(NC(=O)Nc4ccc5c(c4)OCO5)c3)ccnc12 is ____.
*A* > 10 µM

*Q* Fill in the blank: the reported IC50 of COCCCNC(=O)c1cnn2c(-c3cccc(NC(=O)c4cccc(C(F)(F)F)c4)c3)ccnc12 is ____.
*A* 1 µM
